method: Whole blood stability, mouse
Assay type: in vitro ADME
measurementContext: 30 min
We label by threshold. Values of Whole Blood Stability % Remaining at 37° C. Mouse strictly beneath 60% are MET. Values of 60% and up are NOT MET.

smilesEntry	discreteLabel
COC(=O)[C@H]1Cc2c([nH]c3ccccc23)[C@H](c2ccc(NCC3CC3)cc2)N1C(=O)CCl	NOT MET
COC(=O)[C@H]1Cc2c([nH]c3ccccc23)[C@H](c2ccc(C(=O)NCC3CC3)cc2)N1C(=O)CCl	NOT MET
CN(C)C(=O)[C@H]1Cc2c([nH]c3ccccc23)[C@H](c2ccc(S(=O)(=O)C3CC3)cc2)N1C(=O)CCl	NOT MET
COC(=O)[C@H]1Cc2c([nH]c3ccccc23)[C@H](c2ccc(S(=O)(=O)N[C@]34C[C@H]5C[C@H](C[C@H](C5)C3)C4)cc2)N1C(=O)CCl	NOT MET
COC(=O)[C@H]1Cc2c([nH]c3ccccc23)[C@H](c2ccc(C(=O)OCC3CC3)cc2)N1C(=O)CCl	MET
COCCN(C(=O)c1ccc([C@H]2c3[nH]c4ccccc4c3C[C@H](C(=O)N(C)C)N2C(=O)CCl)cc1)C(C)(C)C	NOT MET

* * *

method: Whole blood stability, human
Format: in vitro ADME
measurementContext: 60 min
# Whole Blood Stability % Remaining at 37° C. Human >= 50% gives 1, anything below gives 0

molecule	discreteLabel
CC[C@H]1Cc2c([nH]c3ccccc23)[C@@H](c2ccc(C(=O)OC)cc2)N1C(=O)CCl [Compound 99]	1
CC(C)(C)OC(=O)c1ccc([C@@H]2c3[nH]c4ccccc4c3C[C@H](CO)N2C(=O)CCl)cc1 [Example 64a]	0
C[C@H]1Cc2c([nH]c3ccc(C#N)cc23)[C@H](c2ccc(N3CCOCC3)cc2)N1C(=O)CCl [Compound 115]	0
COC(=O)[C@H]1Cc2c([nH]c3ccccc23)[C@H](c2ccc(NCC3CC3)cc2)N1C(=O)CCl [Compound 83]	1
COC(=O)[C@H]1Cc2c([nH]c3ccccc23)[C@H](c2ccc(S(=O)(=O)N3CC(O)C3)cc2)N1C(=O)CCl [Compound 37]	0
COC(=O)[C@H]1Cc2c([nH]c3ccccc23)[C@H](c2ccc(C(=O)OCC3CCC3)cc2)N1C(=O)CCl [Compound 85]	1

* * *

method: Whole blood stability, human
Assay type: in vitro ADME
measurementContext: 0 min
Whole Blood Stability % Remaining at 37° C. Human listing for selected compounds.
quantity: Whole Blood Stability % Remaining at 37° C. Human (%)

compound	resultNumber
CC(=O)Nc1ccc([C@H]2c3[nH]c4ccccc4c3C[C@H](C(=O)N(C)C)N2C(=O)CCl)cc1 [Compound 71]	100.0
COC(=O)c1ccc([C@H]2c3[nH]c4ccccc4c3C[C@H](C(=O)OC)N2C(=O)CCl)cc1 [K601 (RSL3), reference compound]	100.0
COC(=O)[C@H]1Cc2c([nH]c3ccc(Br)cc23)[C@H](c2ccc(C(=O)OCC3CC3)cc2)N1C(=O)CCl [Compound 87]	100.0
COc1ccc2[nH]c3c(c2c1)C[C@H](C)N(C(=O)CCl)[C@H]3c1ccc(N2CCOCC2)cc1 [Compound 121]	100.0
CN(C)C(=O)c1ccc([C@H]2c3sc4ccccc4c3C[C@H](C(=O)N(C)C)N2C(=O)CCl)cc1 [Compound 55]	100.0
